Consider the following binders and their measured ECM AVRG (average KD) readings.
Target: Matrix-associated proTGFβ1 (hLTBP1-proTGFβ1 and hLTBP3-proTGFβ1 complexes)
Assay: Octet (BLI); IgG1 from yeast; mean of hLTBP1 and hLTBP3
Numeric only. Scale: nM

# annotated cases, reported ECM AVRG (average KD) shown
Ab15 (antibody, IgG1, V domains shown) VH: EVQLVESGGGVVQPGRSLRLSCAASGFTFSDYAMVWVRQAPGKGLEWVSAISGSGFTTYYADSVKGRFTISRDNSKNTLYLQMNSLRAEDTAVYYCARVSSGHWDFDYWGQGTLVTVSS VL: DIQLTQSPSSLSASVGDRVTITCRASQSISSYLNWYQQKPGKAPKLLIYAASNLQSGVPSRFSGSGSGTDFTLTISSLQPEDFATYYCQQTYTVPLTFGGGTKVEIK : 0.159
Ab2 (antibody, V domains shown) VH: EVQLLESGGGLVQPGGSLRLSCAASGFTFADYAMTWVRQAPGKGLEWVSAISGSGAATYFADSVKGRFTISRDNSKNTLYLQMNSLRAEDTAVYYCARVSSGHWDFDYWGQGTLVTVSS VL: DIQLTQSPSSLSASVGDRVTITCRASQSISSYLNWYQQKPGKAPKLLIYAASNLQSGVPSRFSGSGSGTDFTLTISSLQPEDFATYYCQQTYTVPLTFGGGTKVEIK : 0.157

Switching to the query record.
Please report the measured ECM AVRG (average KD) for Ab20 (antibody, V domains shown) VH: EVQLLESGGGLVQPGGSLRLSCAASGFTFSAYAMTWVRQAPGKGLEWVSAISGSGGVTYYADSVKGRFTISRDNSKNTLYLQMNSLRAEDTAVYYCARVSSGHWDYDYWGQGTLVTVSS VL: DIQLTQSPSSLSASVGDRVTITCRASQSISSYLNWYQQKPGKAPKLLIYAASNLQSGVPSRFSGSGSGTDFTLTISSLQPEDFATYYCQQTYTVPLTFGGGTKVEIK
0.162

Data credit: patent US20210340238A1
